Some compounds, each annotated with its measured uptake ratio at 1 min, 2.5 µM.
TARGET_DESC: UniProtKB Q96FL8
ASSAY: in vitro
CONDITION_SUMMARY: HEK293 cells expressing MATE1

COMPOUND	uptake ratio at 1 min, 2.5 µM
CNCC(O)c1ccc(O)cc1 (stereo unspecified)	> 2
C=CCN1CCCC1CNC(=O)c1cc(S(N)(=O)=O)cc(OC)c1OC (stereo unspecified) [VERALIPRIDE]	> 2
CNCc1ccc(-c2[nH]c3cc(F)cc4c3c2CCNC4=O)cc1 [RUCAPARIB]	> 2
O=S(=O)(c1cccc2cnccc12)N1CCCNCC1 [FASUDIL]	< 2
CC(C)NCC(O)c1cc(O)cc(O)c1 (stereo unspecified) [METAPROTERENOL]	> 2

--- query ---
Recorded uptake ratio at 1 min, 2.5 µM (compound NCCCCNCCCN [SPERMIDINE] ): < 2

====

TARGET_DESC: MATE1 (Homo sapiens, UniProt Q96FL8)
Sequence (Q96FL8 whole entry): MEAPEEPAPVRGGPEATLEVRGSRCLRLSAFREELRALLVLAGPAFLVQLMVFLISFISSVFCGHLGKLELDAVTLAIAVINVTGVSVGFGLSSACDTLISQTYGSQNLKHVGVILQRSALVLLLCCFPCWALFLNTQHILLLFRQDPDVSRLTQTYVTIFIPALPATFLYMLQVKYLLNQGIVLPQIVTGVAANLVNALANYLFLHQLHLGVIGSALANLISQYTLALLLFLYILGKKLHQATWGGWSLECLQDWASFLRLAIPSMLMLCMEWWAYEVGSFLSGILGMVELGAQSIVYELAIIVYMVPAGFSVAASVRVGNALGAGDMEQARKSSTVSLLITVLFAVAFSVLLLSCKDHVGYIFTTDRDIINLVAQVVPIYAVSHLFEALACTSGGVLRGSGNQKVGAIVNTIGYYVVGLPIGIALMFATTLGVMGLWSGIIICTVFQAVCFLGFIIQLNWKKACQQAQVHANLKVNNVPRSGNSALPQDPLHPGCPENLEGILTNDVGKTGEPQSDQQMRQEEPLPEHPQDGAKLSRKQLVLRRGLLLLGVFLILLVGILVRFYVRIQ
ASSAY: in vitro
CONDITION_SUMMARY: HEK293 cells expressing MATE1
Some compounds, each annotated with its measured uptake ratio at 1 min, 2.5 µM.

Example results:
COMPOUND	READOUT_TYPE	ENDPOINT_RESULT
CC(C)(C(=O)O)c1ccc(C(O)CCCN2CCC(C(O)(c3ccccc3)c3ccccc3)CC2)cc1 (configuration not stated) [FEXOFENADINE]	uptake ratio at 1 min, 2.5 µM	< 2
CC(C)N(CCC(C(N)=O)(c1ccccc1)c1ccccn1)C(C)C (configuration not stated) [DISOPYRAMIDE]	uptake ratio at 1 min, 2.5 µM	< 2
CCNCC(O)c1cccc(O)c1 (configuration not stated)	uptake ratio at 1 min, 2.5 µM	> 2
Clc1ccc(COC(Cn2ccnc2)c2ccc(Cl)cc2Cl)c(Cl)c1 (configuration not stated)	uptake ratio at 1 min, 2.5 µM	< 2
CC(C)(C)NCC(O)c1ccc(O)c(CO)c1 (racemic)	uptake ratio at 1 min, 2.5 µM	> 2
CC(C)NCC(O)c1ccc(O)c(O)c1 (configuration not stated)	uptake ratio at 1 min, 2.5 µM	> 2

Recorded uptake ratio at 1 min, 2.5 µM (compound COc1ccc(CCN)cc1O ): > 2

Recorded uptake ratio at 1 min, 2.5 µM (compound C[C@H]1N=C(N(C)C)N=C(N)N1 ): > 2

Recorded uptake ratio at 1 min, 2.5 µM (compound NCCc1c[nH]c2ccc(O)cc12 ): > 2

Recorded uptake ratio at 1 min, 2.5 µM (compound C1CCN2C[C@H]3C[C@H](CN4CCCC[C@@H]34)[C@H]2C1 ): > 2

Recorded uptake ratio at 1 min, 2.5 µM (compound OC(c1ccccc1)(c1ccccc1)C12CC[N+](CCOCc3ccccc3)(CC1)CC2 ): > 2

Recorded uptake ratio at 1 min, 2.5 µM (compound N=C(N)NC(=N)Nc1ccc(Cl)cc1 [4-CHLOROPHENYLBIGUANIDE] ): > 2

Recorded uptake ratio at 1 min, 2.5 µM (compound CC(C)(C)NCC(O)COc1cccc2c1CC(O)C(O)C2 (configuration not stated) ): > 2

Recorded uptake ratio at 1 min, 2.5 µM (compound COc1cccc2c1C(=O)c1c(O)c3c(c(O)c1C2=O)C[C@@](O)(C(C)=O)C[C@@H]3O[C@H]1C[C@H](N)[C@H](O)[C@H](C)O1 ): < 2

Recorded uptake ratio at 1 min, 2.5 µM (compound CN1CCN(CC(=O)N2c3ccccc3C(=O)Nc3cccnc32)CC1 [PIRENZEPINE] ): > 2
